Emax values for the compounds below.
- Tested on: L6-myotubes
- assay.protocol: Glucose uptake (3H-2-deoxy-glucose) in differentiated L6-myotubes
- Type: cell-based
- condition.description: agonist final concentration 1×10^−5, 50 nM 3H-2-deoxy-glucose, relative to isoproterenol, read-out: Biological example 1: glucose uptake activity compared to that of isoproterenol
Counter-ions that a name gives are not always drawn.
measured.quantity: Emax

CCCCNC[C@H](O)c1cccc(F)c1 [Example 4]
> 75%
CC(C)(C)NC[C@H](O)c1cccc(F)c1 [Example 5]
> 75%
CCCCNCC(O)c1ccc(F)c(NC(C)=O)c1F (centres unmarked) [Example 8]
25 to 50%
CC(C)(C)NC[C@H](O)c1ccc(F)cc1O [Example 19]
50 to 75%
O[C@@H](CNC1(C(F)(F)F)CC1)c1cccc(F)c1 [Example 30, hydrochloride]
50 to 75%
CC(C)(C)CNC[C@H](O)c1cccc(F)c1 [Example 29, hydrochloride]
25 to 50%
CCCCNCC(O)c1cc(F)c(N)c(F)c1 (centres unmarked) [Example 6]
> 75%
CCCCNCC(O)c1ccc(F)c(F)c1 (centres unmarked) [Example 2]
50 to 75%

###

- System: L6-myotubes
- assay.protocol: Glucose uptake (3H-2-deoxy-glucose) in differentiated L6-myotubes
- Assay type: cell-based
- condition.description: agonist final concentration 1×10^−5, 50 nM 3H-2-deoxy-glucose, relative to isoproterenol, read-out: Biological example 1: glucose uptake activity compared to that of isoproterenol
Counter-ions that a name gives are not always drawn.
measured.quantity: Emax

CC(C)(C)NC[C@H](O)c1cccc(N)c1F
> 75%
CCCCNC[C@H](O)c1ccc(F)cc1O
> 75%
CCC[C@@H](C)NC[C@H](O)c1ccc(F)cc1
50 to 75%
CC(C)(C)NC[C@H](O)c1ccccc1F
50 to 75%
CC1(NC[C@H](O)c2cccc(F)c2)CCC1
> 75%
CCCCNCC(O)c1ccc(F)c(N)c1F (centres unmarked)
> 75%
CC(C)(C)NC[C@H](O)c1ccc(F)c(N)c1F [Example 31, hydrochloride]
> 75%
CCCC(C)(C)NC[C@H](O)c1cccc(F)c1
> 75%
CCC[C@H](C)NC[C@H](O)c1cccc(F)c1
50 to 75%
CCCCNC[C@H](O)c1cccc(O)c1F
> 75%
Cc1c(F)cccc1[C@@H](O)CNC(C)(C)C
> 75%
CC(C)(C)NC[C@H](O)c1cccc(F)c1F
> 75%
CCCCNCC(O)c1cc(F)cc(F)c1 (centres unmarked)
50 to 75%
CCCCNC[C@H](O)c1cccc(N)c1F [Example 28, dihydrochloride]
50 to 75%
CCCCNC[C@H](O)c1ccccc1F
> 75%
CCC[C@H](C)NC[C@H](O)c1ccc(F)cc1
25 to 50%
CC(C)(C)NC[C@H](O)c1ccc(F)c(O)c1
> 75%
CCCCNC[C@H](O)c1cccc(F)c1F
> 75%
CC(C)(C)NC[C@H](O)c1cccc(O)c1F
50 to 75%
CC1(NC[C@H](O)c2cccc(F)c2)CC1
> 75%
CCCCNC[C@H](O)c1ccc(F)c(O)c1
> 75%
CCCCNC[C@H](O)c1ccc(F)cc1
25 to 50%
CCC[C@@H](C)NC[C@H](O)c1cccc(F)c1
> 75%

###

- Tested on: Intracellular cAMP levels
- assay.protocol: Measurement of intracellular cAMP levels in differentiated L6 cells
- Type: cell-based
- condition.description: Rattus norvegicus, L6, 0.25 h, agonist final concentration 1×10^−5, 15 min, alpha screen cAMP kit, relative to isoproterenol, read-out: Biological example 2: intracellular cAMP activity compared to that of isoproterenol
Where a name gives a salt, the structure may show the parent alone.
Emax values for the compounds below.
measured.quantity: Emax

CCC[C@H](C)NC[C@H](O)c1cccc(F)c1
< 25%
CC1(NC[C@H](O)c2cccc(F)c2)CCC1
25 to 50%
CC(C)(C)NC[C@H](O)c1cccc(N)c1F
25 to 50%
CC1(NC[C@H](O)c2cccc(F)c2)CC1
< 25%
CCCCNC[C@H](O)c1ccc(F)cc1
< 25%
CC(C)(C)NC[C@H](O)c1cccc(O)c1F
50 to 75%
CCC[C@@H](C)NC[C@H](O)c1ccc(F)cc1
< 25%
CCCCNC[C@H](O)c1cccc(O)c1F
25 to 50%
CC(C)(C)NC[C@H](O)c1ccccc1F
< 25%
CCCCNC[C@H](O)c1ccc(F)c(O)c1
< 25%
CC(C)(C)NC[C@H](O)c1cccc(F)c1F
25 to 50%
CC(C)(C)CNC[C@H](O)c1cccc(F)c1 [Example 29, hydrochloride]
< 25%
CCCCNCC(O)c1ccc(F)c(N)c1F (centres unmarked)
< 25%
CCCCNCC(O)c1ccc(F)c(F)c1 (centres unmarked)
< 25%
CCCCNCC(O)c1cc(F)c(N)c(F)c1 (centres unmarked)
> 75%
CCC[C@H](C)NC[C@H](O)c1ccc(F)cc1
< 25%
CC(C)(C)NC[C@H](O)c1ccc(F)c(N)c1F [Example 31, hydrochloride]
< 25%
CC(C)(C)NC[C@H](O)c1ccc(F)c(O)c1
50 to 75%
CCCCNCC(O)c1ccc(F)c(NC(C)=O)c1F (centres unmarked)
< 25%
CCCCNC[C@H](O)c1ccc(F)cc1O
< 25%
CC(C)(C)NC[C@H](O)c1ccc(F)cc1O
< 25%
CCCCNCC(O)c1cc(F)cc(F)c1 (centres unmarked)
< 25%
CCCC(C)(C)NC[C@H](O)c1cccc(F)c1
< 25%
